# Assayed Target: Ba/F3 stable cells (Homo sapiens, UniProt P00533, T790M/L858R, cells depend on it)
# Construct: EC50 Ba/F3-EGFR L858R-T790M; other: Ba/F3-EGFR L858R-T790M cells, 72 h, CCK-8
# Sequence (P00533 whole entry T790M/L858R): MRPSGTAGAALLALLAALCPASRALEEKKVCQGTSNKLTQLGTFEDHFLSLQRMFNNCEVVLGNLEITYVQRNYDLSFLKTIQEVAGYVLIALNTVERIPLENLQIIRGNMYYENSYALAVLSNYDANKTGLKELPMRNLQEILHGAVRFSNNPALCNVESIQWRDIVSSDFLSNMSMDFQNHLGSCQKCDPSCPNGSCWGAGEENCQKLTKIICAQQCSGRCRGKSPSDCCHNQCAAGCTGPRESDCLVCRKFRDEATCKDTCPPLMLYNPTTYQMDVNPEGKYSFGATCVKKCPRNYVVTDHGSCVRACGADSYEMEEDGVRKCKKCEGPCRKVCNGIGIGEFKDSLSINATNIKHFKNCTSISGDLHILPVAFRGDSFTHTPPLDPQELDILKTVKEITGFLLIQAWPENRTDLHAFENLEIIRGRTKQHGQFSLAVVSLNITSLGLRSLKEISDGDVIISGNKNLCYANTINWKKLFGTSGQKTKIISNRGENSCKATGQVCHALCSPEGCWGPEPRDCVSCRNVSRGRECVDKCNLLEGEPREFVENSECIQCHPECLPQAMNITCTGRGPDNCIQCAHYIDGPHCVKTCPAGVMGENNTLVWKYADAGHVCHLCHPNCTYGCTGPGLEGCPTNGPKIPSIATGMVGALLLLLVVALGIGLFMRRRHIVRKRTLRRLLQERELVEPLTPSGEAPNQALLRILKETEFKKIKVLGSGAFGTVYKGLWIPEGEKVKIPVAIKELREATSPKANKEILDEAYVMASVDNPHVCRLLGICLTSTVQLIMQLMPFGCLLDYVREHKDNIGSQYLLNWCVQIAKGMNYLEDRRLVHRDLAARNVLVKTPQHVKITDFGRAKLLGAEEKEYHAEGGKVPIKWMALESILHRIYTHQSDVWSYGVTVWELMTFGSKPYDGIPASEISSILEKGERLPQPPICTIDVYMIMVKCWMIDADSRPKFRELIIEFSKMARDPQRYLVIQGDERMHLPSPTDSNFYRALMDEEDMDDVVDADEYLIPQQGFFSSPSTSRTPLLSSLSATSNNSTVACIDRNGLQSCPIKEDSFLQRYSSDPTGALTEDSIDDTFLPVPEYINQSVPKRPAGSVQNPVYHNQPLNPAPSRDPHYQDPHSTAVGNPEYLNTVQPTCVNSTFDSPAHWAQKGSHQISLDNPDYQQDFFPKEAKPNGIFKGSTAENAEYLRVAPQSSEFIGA
# Assay Text: EC50 assay: Ba/F3 stable cell proliferation (CCK-8, 72 h)
# Experimental Conditions: Ba/F3-EGFR L858R-T790M cells
pEC50: −log10 of the molar value.
Observation Type: pEC50

Exercise: Reported pEC50, compound `C=CC(=O)N[C@H]1C[C@@H](Oc2cc3c(Nc4ccc(Cl)c(Cl)c4F)ncnc3cc2O[C@H]2CCOC2)C1` : ____
Key: ≥ 6.70

Exercise: Reported pEC50, compound C=CC(=O)NCC1COc2cc3ncnc(Nc4ccc(Cl)c(Cl)c4F)c3cc21 (centres unmarked) : ____
Key: < 6.00

Exercise: Reported pEC50, compound `COc1cc2ncnc(Nc3ccc(Cl)c(Cl)c3F)c2cc1OC1CCN(C#N)CC1` : ____
Key: < 6.00

Exercise: Reported pEC50, compound C=CC(=O)N1C2CCCC1CC(Oc1cc3c(Nc4ccc(Cl)c(Cl)c4F)ncnc3cc1OC)C2 (centres unmarked) : ____
Key: ≥ 6.70

Exercise: Reported pEC50, compound C=CC(=O)N1C2CCCC1CC(Oc1cc3c(Nc4cccc5c4CCC5)ncnc3cc1OC)C2 (centres unmarked) : ____
Key: 6.00 to 6.70

###

# Assayed Target: Ba/F3 stable cells (Homo sapiens, UniProt P04626, DUP772-775, cells depend on it)
# Construct: EC50 Ba/F3-HER2 A775-G776insYVMA; other: Ba/F3-HER2 A775-G776insYVMA cells, 72 h, CCK-8
# Sequence (P04626 with tags, fused parts or gaps DUP772-775): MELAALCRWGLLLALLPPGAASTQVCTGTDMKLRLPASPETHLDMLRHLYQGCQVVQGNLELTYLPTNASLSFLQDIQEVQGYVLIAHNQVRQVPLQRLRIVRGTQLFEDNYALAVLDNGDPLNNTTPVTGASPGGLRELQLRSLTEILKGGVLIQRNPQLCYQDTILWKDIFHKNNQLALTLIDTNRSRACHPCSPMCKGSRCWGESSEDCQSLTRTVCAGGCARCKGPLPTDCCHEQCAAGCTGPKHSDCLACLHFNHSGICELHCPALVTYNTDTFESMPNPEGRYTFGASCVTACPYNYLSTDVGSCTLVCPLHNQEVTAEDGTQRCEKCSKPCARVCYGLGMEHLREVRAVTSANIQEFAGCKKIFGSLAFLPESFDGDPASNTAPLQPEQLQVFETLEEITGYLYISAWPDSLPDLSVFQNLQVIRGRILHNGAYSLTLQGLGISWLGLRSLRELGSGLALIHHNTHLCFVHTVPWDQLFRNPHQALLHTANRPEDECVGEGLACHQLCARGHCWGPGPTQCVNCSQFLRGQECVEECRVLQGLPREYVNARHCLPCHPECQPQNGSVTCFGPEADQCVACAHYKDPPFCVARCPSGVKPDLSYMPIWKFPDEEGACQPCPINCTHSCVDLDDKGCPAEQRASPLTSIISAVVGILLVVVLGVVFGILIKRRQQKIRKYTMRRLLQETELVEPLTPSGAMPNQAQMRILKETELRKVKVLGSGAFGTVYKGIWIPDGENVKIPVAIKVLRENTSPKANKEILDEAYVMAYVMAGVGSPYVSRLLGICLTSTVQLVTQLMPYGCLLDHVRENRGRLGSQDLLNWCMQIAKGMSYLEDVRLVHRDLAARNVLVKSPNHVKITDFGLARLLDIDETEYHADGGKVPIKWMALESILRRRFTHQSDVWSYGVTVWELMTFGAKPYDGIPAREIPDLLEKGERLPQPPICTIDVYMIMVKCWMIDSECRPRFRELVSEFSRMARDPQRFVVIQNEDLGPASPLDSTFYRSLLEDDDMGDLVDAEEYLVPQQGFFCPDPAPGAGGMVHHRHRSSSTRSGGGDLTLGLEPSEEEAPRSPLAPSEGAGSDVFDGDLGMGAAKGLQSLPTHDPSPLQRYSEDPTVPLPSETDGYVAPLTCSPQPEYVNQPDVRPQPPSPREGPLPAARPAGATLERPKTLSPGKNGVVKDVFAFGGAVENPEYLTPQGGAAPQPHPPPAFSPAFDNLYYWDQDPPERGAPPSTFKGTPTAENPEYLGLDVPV
# Assay Text: EC50 assay: Ba/F3 stable cell proliferation (CCK-8, 72 h)
# Experimental Conditions: Ba/F3-HER2 A775-G776insYVMA cells
pEC50: −log10 of the molar value.
Below, each of the compounds is paired with its reported pEC50 value.

Exercise: Reported pEC50, compound `C=CC(=O)N1CCC=C(c2ccc3ncnc(Nc4ccc(Cl)c(Cl)c4F)c3c2)C1` : ____
Key: 6.00 to 6.70

Exercise: Reported pEC50, compound `C=CC(=O)N1CCC(Oc2c(OC)cc3ncnc4c3c2N(C)C(=O)N4c2ccc(Cl)c(Cl)c2F)CC1` : ____
Key: < 6.00

Exercise: Reported pEC50, compound `C=CC(=O)N1CCC(Oc2cc3c(NCc4ccc(F)cc4)ncnc3cc2OC)CC1` : ____
Key: ≥ 6.70

Exercise: Reported pEC50, compound C=CC(=O)NC1CC(Nc2cc3c(Nc4ccc(Cl)c(Cl)c4F)ncnc3cc2OC)C1 (centres unmarked) : ____
Key: ≥ 6.70

Exercise: Reported pEC50, compound C=CC(=O)NC1CC(Oc2cc3c(Nc4cccc5c4CCC5)ncnc3cc2OC)C1 (centres unmarked) : ____
Key: < 6.00

Exercise: Reported pEC50, compound COc1cc2ncnc(Nc3ccc(Cl)c(Cl)c3F)c2cc1OC1CCCN(C#N)C1 (centres unmarked) : ____
Key: < 6.00

###

# Assayed Target: Ba/F3 stable cells (Homo sapiens, UniProt P00533, DUP767-769, cells depend on it)
# Construct: EC50 Ba/F3-EGFR V769-D770insASV; other: Ba/F3-EGFR V769-D770insASV cells, 72 h, CCK-8
# Sequence (P00533 with tags, fused parts or gaps DUP767-769): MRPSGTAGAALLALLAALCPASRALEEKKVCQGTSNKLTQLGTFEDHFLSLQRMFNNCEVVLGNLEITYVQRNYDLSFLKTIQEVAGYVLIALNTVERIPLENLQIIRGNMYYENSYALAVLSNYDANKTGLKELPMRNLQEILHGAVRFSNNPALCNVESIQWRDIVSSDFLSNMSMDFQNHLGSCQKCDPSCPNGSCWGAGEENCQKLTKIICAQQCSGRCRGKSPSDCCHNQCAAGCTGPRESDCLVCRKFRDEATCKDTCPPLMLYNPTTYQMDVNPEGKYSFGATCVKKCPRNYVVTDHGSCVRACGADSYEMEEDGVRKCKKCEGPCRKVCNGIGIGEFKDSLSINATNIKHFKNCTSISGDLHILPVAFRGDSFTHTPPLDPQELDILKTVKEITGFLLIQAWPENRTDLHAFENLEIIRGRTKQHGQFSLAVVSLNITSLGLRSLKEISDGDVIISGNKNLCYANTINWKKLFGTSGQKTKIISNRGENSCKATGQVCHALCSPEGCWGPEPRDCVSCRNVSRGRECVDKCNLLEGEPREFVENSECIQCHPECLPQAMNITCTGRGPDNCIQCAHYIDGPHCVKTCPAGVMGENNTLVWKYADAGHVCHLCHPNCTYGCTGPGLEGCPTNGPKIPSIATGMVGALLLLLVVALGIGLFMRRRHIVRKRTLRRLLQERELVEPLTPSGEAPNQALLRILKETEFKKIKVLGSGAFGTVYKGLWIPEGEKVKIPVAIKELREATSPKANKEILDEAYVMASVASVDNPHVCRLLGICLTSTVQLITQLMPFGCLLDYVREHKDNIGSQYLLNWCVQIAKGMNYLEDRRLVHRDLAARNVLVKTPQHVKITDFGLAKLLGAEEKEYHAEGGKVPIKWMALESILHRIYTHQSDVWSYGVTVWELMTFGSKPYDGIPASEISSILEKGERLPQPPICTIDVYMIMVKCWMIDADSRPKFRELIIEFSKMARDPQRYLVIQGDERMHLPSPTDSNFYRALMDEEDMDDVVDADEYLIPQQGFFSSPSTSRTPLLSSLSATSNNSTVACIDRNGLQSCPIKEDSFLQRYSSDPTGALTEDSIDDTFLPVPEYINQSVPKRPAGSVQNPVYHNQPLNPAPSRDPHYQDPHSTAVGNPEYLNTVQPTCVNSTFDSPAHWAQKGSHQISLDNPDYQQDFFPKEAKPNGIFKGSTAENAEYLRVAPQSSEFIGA
# Assay Text: EC50 assay: Ba/F3 stable cell proliferation (CCK-8, 72 h)
# Experimental Conditions: Ba/F3-EGFR V769-D770insASV cells
pEC50: −log10 of the molar value.
Observation Type: pEC50

INSERT INTO assay_data (compound, measured_value) VALUES
  ('C=CC(=O)N1CC(c2cc3c(Nc4ccc(Cl)c(Cl)c4F)ncnc3cc2OC(F)F)C1', '≥ 6.70'),
  ('C=CC(=O)N1CCC(Oc2cc3c(Nc4ccnc5ccccc45)ncnc3cc2OC)CC1', '≥ 6.70'),
  ('C=CC(=O)N1CC(c2cc3c(Nc4ccc5c(c4)CCN5)ncnc3cc2OC)C1', '< 6.00');

Exercise: Reported pEC50, compound `C=CC(=O)N1CCC(Oc2cc3c(NCc4ccc(Cl)cc4Cl)ncnc3cc2OC)CC1` : ____
Key: < 6.00
